# System: HepG2
# Assay name: GSK_TCMDC: Percent inhibition of human HepG2 cell line. Test compounds present at 10uM.
# Type: functional
Quantity name: Inhibition (%)
Hi! Could you send only the number? It should be in %, unit omitted.

Provide measured Inhibition value, entry: `Cl.O=C(Nc1ccc(Cl)c(Cl)c1)N1CCc2cc3nccc(N4CCN5CCC[C@H]5C4)c3cc21` 2

----------
# System: HepG2
# Assay name: GSK_TCMDC: Percent inhibition of human HepG2 cell line. Test compounds present at 10uM.
# Format: functional
This listing pairs compounds with measured Inhibition.
Hi! Could you send only the number? It should be in %, unit omitted.

Worked examples, 3 compounds total:
Provide measured Inhibition value, entry: `CCOc1ccc2c(=NN=Cc3cccc(OC)c3OC)cc(C)[nH]c2c1` 4

Provide measured Inhibition value, entry: `O=C(/C=C/c1ccc(Cl)c(Cl)c1)NCCCCCN1CCC(NC(=S)Nc2ccc(Cl)c(Cl)c2)CC1` 29

Provide measured Inhibition value, entry: `O=C(Nc1ccc(CN2CCN(S(=O)(=O)c3cccc(Cl)c3)CC2)cc1)c1cccs1.O=C(O)C(F)(F)F` 9

Continuing:
Provide measured Inhibition value, entry: CN(C)c1ccc(-c2csc(C(=O)NCC3CCN(CCC(C)(C)C)C3)c2)cc1.O=C(O)C(F)(F)F (centres undefined) 29

Provide measured Inhibition value, entry: `Cc1cccc(CCNC(=O)c2cc(Br)cc(N3CCN(c4ccncc4)CC3)c2)c1.O=C(O)C(F)(F)F` 48

Provide measured Inhibition value, entry: `CCN(CC)/C(=N/C(=N)Nc1ccc(Br)cc1)NCCCCCCN/C(=N\C(=N)Nc1ccc(Br)cc1)N(CC)CC` 0

Provide measured Inhibition value, entry: `CC(C)[C@H](NC(=O)c1ccc(O)c(-c2cccc(C(F)(F)F)c2)c1)C(=O)NCCN1CCCCC1` 3

Provide measured Inhibition value, entry: `Cl.O=c1cc(NCCCNCc2ccc(Cl)c(Cl)c2)[nH]c2ccc(C(F)(F)F)cc12` 10

Provide measured Inhibition value, entry: `Cc1ccc2nc(C)n(C3CCN(C(=O)Cc4ccc(F)c(F)c4)CC3)c2c1` 4

----------
# Tested on: Plasmodium falciparum
# Assay name: GSK_TCMDC: Inhibition of Plasmodium falciparum 3D7 in whole red blood cells, using parasite LDH activity as an index of growth. Test compounds present at 2uM
# Type: functional
Quantity name: Inhibition (%)
Hi! Could you send only the number? It should be in %, unit omitted.

Provide measured Inhibition value, entry: `c1ccc(CN2CCc3cc4nccc(N5CCNCC5)c4cc32)cc1` 100

Provide measured Inhibition value, entry: `Cl.Oc1ccc(-c2ccccc2)cc1CNC1CCCCC1` 95

Provide measured Inhibition value, entry: `COc1ccc(CNc2nccc3ccc(-c4ccc5nccn5c4)cc23)cc1.O=C(O)C(F)(F)F` 95

Provide measured Inhibition value, entry: `Cl.O=c1cc(NCCCNCc2ccc(Cl)c(Cl)c2)[nH]c2ccc(Cl)cc12` 100

Provide measured Inhibition value, entry: COc1cc(C(=O)N2CCOC(CCN3CCC4c5ccccc5CC43)(c3ccc(Cl)c(Cl)c3)C2)cc(OC)c1OC (configuration not stated) 88

Provide measured Inhibition value, entry: COc1cc(C2Nc3ccc4ccccc4c3C3=C2C(=O)CC(C)(C)C3)ccc1Oc1ccc([N+](=O)[O-])cc1C#N (configuration not stated) 99

Provide measured Inhibition value, entry: `O=C(N[C@H]1CCN(CCc2ccc(O[C@H]3CCNC3)c(Br)c2)C1)c1ccc(Cl)c(Cl)c1.O=C(O)C(F)(F)F` 100

----------
# System: Plasmodium falciparum
# Assay name: GSK_TCMDC: Inhibition of Plasmodium falciparum Dd2 in whole red blood cells, using parasite LDH activity as an index of growth. Test compounds present at 2uM
# Format: functional
Quantity name: Inhibition
Give the figure together with its unit, number first.

Worked examples, 4 compounds total:
Provide measured Inhibition value, entry: `O=C(O)C(F)(F)F.c1cc(-c2ccc(CNCc3ccsc3)cc2)cc(-c2nc3ccccc3[nH]2)c1` 82%

Provide measured Inhibition value, entry: `Cl.O=C1c2ccccc2CN1CCCN1CCC(Oc2ccc(F)cc2)CC1` 1%

Provide measured Inhibition value, entry: `COc1ccc(CNC2CCN(C)CC2)cc1-c1ccc(S(=O)(=O)NCc2ccccc2)cc1.O=C(O)C(F)(F)F` 99%

Provide measured Inhibition value, entry: COc1ccc(Nc2nccc(N3CCC(NC(=O)c4cccc(NC(C)=O)c4)C3)n2)cc1 (stereo not given) 84%

Let's switch to this compound now.
Provide measured Inhibition value, entry: `CCOc1ccc(-c2nonc2NC(=O)c2ccccc2OC)cc1OCC` 99%

----------
# Test system: Plasmodium falciparum
# Assay name: GSK_TCMDC: Inhibition of Plasmodium falciparum Dd2 in whole red blood cells, using parasite LDH activity as an index of growth. Test compounds present at 2uM
# Assay type: functional
Quantity name: Inhibition (%)
Hi! Could you send only the number? It should be in %, unit omitted.

Provide measured Inhibition value, entry: CCC(C)NCCC(c1ccccc1)c1ccccc1O.Cl (stereo not given) 74

Continuing:
Provide measured Inhibition value, entry: `Cc1ccc(C2CCN(CCCCNC(=O)c3ccc(-c4ccc(C#N)cc4)cc3)CC2)c(O)c1` 90

Provide measured Inhibition value, entry: `Cc1cc(=NN=Cc2cccc(F)c2)c2cccc(C)c2[nH]1` 53

Provide measured Inhibition value, entry: `COc1ccc(CCNCc2cc3c(C(C)(C)C)nn(-c4ccc(Cl)cc4)c3[nH]c2=O)cc1OC` 99

Provide measured Inhibition value, entry: `COc1ccc(CNC2CCN(C)CC2)cc1-c1ccc(S(=O)(=O)NC2CCC2)c(F)c1.O=C(O)C(F)(F)F` 97

Provide measured Inhibition value, entry: `Clc1cc(Nc2ncnc3sc(C#C[C@H]4CCCN4)cc23)ccc1OCc1cccnc1Cl.O=C(O)C(F)(F)F` 93

Provide measured Inhibition value, entry: `O=C(Nc1ccccc1)N(Cc1cccc(-c2cccc(CNCc3ccc4c(c3)OCO4)c2)c1)C1CCN(Cc2ccccc2)CC1.O=C(O)C(F)(F)F` 84

Provide measured Inhibition value, entry: `COc1cc2nc(C)nc(Nc3ccc(Cc4ccccc4)cc3)c2cc1OC.Cl` 99

Provide measured Inhibition value, entry: `NC(=O)c1sc(-n2cnc3ccccc32)cc1OCc1ccccc1[N+](=O)[O-]` 46

Provide measured Inhibition value, entry: CC1CN(c2ccc(C(=O)NCC3CC3)cc2NC(=O)OCc2ccccc2)CC(C)O1.O=C(O)C(F)(F)F (stereo not given) 76

----------
# Test system: Plasmodium falciparum
# Assay name: GSK_TCMDC: Inhibition of Plasmodium falciparum Dd2 in whole red blood cells, using parasite LDH activity as an index of growth. Test compounds present at 2uM
# Assay type: functional
This listing pairs molecules with measured Inhibition.

Worked examples, 3 molecules total:
Provide measured Inhibition value, entry: `CCC(CC)CN1C(=O)C(c2ccccc2)(c2ccccc2)N=C1N.O=CO` 81%

Provide measured Inhibition value, entry: `Cc1c(Cl)cccc1S(=O)(=O)Nc1cccc(CCN2CCC(N3CCCCC3)CC2)c1` 82%

Provide measured Inhibition value, entry: COc1ccccc1N1CCN(C(C(=O)NCc2ccc(C)cc2)c2ccc(C)cc2)CC1 (centres undefined) 79%

Continuing:
Provide measured Inhibition value, entry: COc1ccc(CNC(=O)NC2CCN(c3ccnc(Nc4ccc(OC)cc4)n3)C2)cc1 (centres undefined) 80%

----------
# System: Plasmodium falciparum
# Assay name: GSK_TCMDC: Inhibition of Plasmodium falciparum Dd2 in whole red blood cells, using parasite LDH activity as an index of growth. Test compounds present at 2uM
# Assay type: functional
Quantity name: Inhibition

Worked examples, 3 molecules total:
Provide measured Inhibition value, entry: `CN(C)CCNC(=O)c1cccc(-c2cnc3ccc(NCc4ccc(Cl)c(Cl)c4)nn23)c1` 53%

Provide measured Inhibition value, entry: `O=C(O)C(F)(F)F.O=C1CCCN1CCCNCc1ccc(-c2ccc(-c3nc4cc(C(F)(F)F)ccc4[nH]3)cc2)cc1` 98%

Provide measured Inhibition value, entry: Cc1ccc2[nH]c3c(c2c1)CC(C(=O)NCCC(C)C)NC31CCN(Cc2ccccc2)CC1 (centres undefined) 50%

Let's switch to this molecule now.
Provide measured Inhibition value, entry: `CC(C)C(C(=O)n1ncc2c3c(N)nc(N)nc3ccc21)C(C)C` 8%

----------
# Test system: Plasmodium falciparum
# Assay name: GSK_TCMDC: Inhibition of Plasmodium falciparum Dd2 in whole red blood cells, using parasite LDH activity as an index of growth. Test compounds present at 2uM
# Format: functional
Quantity name: Inhibition (%)
Hi! Could you send only the number? It should be in %, unit omitted.

Worked examples, 5 compounds total:
Provide measured Inhibition value, entry: CC(C)C1CCc2nc(N)nc(N)c2C1.Cl (stereo not given) 0

Provide measured Inhibition value, entry: `CN1CCN(CCCN(Cc2cccc(-c3ccc(CNC4CCCC4)cc3)c2)C(=O)CCC2CCCC2)CC1.O=C(O)C(F)(F)F` 84

Provide measured Inhibition value, entry: `O=C(Nc1ccc(Cl)cc1)c1ccc(CN2CCCN(Cc3cccc(F)c3)CC2)cc1.O=C(O)C(F)(F)F` 8

Provide measured Inhibition value, entry: `COC(=O)c1ccc(-c2ccc(C(=O)NCC3CCN(c4nc(N)c5cc(OC)c(OC)cc5n4)CC3)cc2)cc1` 100

Provide measured Inhibition value, entry: `CC(C)(CNC(=O)[C@H]1CCCCN1)c1nc(-c2ccc(Cl)c(O)c2)c(-c2ccncc2)[nH]1.Cl` 98

Continuing:
Provide measured Inhibition value, entry: O=C(NC(NC(=S)Nc1ccc([N+](=O)[O-])cc1)C(Cl)(Cl)Cl)c1cccc(Cl)c1 (stereo not given) 100

Provide measured Inhibition value, entry: `COc1ccc(CNC2CCN(C)CC2)cc1-c1ccc(S(=O)(=O)NCc2ccccc2)c(C)c1.O=C(O)C(F)(F)F` 98

Provide measured Inhibition value, entry: `COc1ccccc1/C=C/C(=O)N(C)C1CCN(CCCCCNC(=O)/C=C/c2ccc(Cl)c(Cl)c2)CC1` 63

Provide measured Inhibition value, entry: `C[C@H](Cc1ccc(CCc2ccc(C[C@@H](C)NC[C@H](O)c3cccc(Cl)c3)cc2)cc1)NC[C@H](O)c1cccc(Cl)c1.Cl` 92

Provide measured Inhibition value, entry: O=C(Nc1ccnc(N2CC3CC2CN3Cc2cccc(O)c2)c1)c1ccc(F)cc1.O=C(O)C(F)(F)F (stereo not given) 0
